testedOn: T1, O772P 3-repeat recombinant protein (human)
T1 construct: Repeats are residues 14-452 of the entry
T1 chain: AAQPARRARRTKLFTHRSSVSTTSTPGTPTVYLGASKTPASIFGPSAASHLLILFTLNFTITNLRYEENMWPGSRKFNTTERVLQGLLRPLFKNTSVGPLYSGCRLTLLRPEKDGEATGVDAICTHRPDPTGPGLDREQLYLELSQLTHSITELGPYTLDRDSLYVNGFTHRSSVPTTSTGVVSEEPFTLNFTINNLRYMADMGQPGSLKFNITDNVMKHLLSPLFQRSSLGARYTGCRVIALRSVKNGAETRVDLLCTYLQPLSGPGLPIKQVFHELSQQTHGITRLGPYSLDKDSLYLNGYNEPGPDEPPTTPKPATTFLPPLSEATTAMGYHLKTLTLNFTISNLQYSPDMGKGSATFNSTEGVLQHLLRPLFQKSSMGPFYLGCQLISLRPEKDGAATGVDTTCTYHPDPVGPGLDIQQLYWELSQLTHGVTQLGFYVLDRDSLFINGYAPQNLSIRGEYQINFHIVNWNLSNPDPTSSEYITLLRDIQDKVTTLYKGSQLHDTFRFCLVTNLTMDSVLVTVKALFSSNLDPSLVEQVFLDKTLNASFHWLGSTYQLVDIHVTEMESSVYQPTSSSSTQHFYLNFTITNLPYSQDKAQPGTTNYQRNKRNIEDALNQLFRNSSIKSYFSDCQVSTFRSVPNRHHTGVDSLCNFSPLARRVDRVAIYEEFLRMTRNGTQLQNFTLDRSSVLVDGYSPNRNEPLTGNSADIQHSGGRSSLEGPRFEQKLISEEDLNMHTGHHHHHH
protocolNotes: ELISA competition, plate-bound O772P 3-repeat; no competitor
readoutLabel: absorbance (OD)
Give the value, in units of OD, as a plain number.

binder	unitAbbreviation	absorbance
monoclonal antibody 776.1 (antibody, V domains shown) VH: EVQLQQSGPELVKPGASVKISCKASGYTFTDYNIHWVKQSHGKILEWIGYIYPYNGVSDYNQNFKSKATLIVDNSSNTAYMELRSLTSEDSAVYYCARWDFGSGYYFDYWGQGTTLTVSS VL: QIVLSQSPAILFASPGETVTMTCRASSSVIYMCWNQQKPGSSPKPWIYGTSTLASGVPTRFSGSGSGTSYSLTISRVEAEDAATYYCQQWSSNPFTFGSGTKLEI	OD	1.18

Quick check: absorbance of OC125 (antibody) chain 1: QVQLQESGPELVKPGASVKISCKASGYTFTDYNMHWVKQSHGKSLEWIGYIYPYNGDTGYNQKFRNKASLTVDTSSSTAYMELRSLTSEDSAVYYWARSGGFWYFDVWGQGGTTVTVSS chain 2: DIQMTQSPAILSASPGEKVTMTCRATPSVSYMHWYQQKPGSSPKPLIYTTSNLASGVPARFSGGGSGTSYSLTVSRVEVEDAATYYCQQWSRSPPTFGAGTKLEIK ? 0.73
